Values were extracted from the supplement of paper PMC10567573.

assay: protein stability index of a GFP-peptide fusion (GPS, HEK-293T) (PSI 1-6); higher = more stable; settings: treatment: DMSO; c terminus: a fixed tail appended;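 note: 24-mer peptide tiles fused after GFP, lentivirally expressed, FACS-sorted into six equal bins by GFP/DsRed ratio, decoded by Illumina sequencing, PSI is the read-weighted mean bin number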
Please mark Criterion met if the recorded protein stability index is equal to or greater than 4, and Criterion not met if it falls below.

{"SEQ_STRING": "LLRFAQVFSQMIHLNETVKAPDIE [FEM1B]", "CLASS": "Criterion not met"}
{"SEQ_STRING": "ISENRKRQWPTKSQTDRGASAGKR [SDE2]", "CLASS": "Criterion met"}
{"SEQ_STRING": "TSSNLGSQYQCENGVSGPSQDLLP [TBX5]", "CLASS": "Criterion met"}
{"SEQ_STRING": "IQGYRVYYTMDPTQHVNNWMKHNV [PTPRD]", "CLASS": "Criterion not met"}
{"SEQ_STRING": "ECTQMDHLGCMHYTVRAPVGVAGL [ALDH8A1]", "CLASS": "Criterion not met"}

Query string: Say whether KIGVGAMTWSPLACGIVSGKYDSG [KCNAB2] shows protein stability index of 4 or more.
Result string: Criterion not met

Query string: Say whether GGGPGDGGGADTGTGGEEVEALQL [FBXO33] shows protein stability index of 4 or more.
Result string: Criterion met

Query string: Say whether ALEGSALANGRALSAGSPPVPPGW [DLX1] shows protein stability index of 4 or more.
Result string: Criterion not met

Query string: Say whether SKTEELNREVATNSELVQSGKSEI [KRT17] shows protein stability index of 4 or more.
Result string: Criterion met

Query string: Say whether YKENFLKRFQLTKLPPYLIFCIKR [USP39] shows protein stability index of 4 or more.
Result string: Criterion not met

Query string: Say whether LSKASEPKYQLFVPQLVTGRCATR [RNF180] shows protein stability index of 4 or more.
Result string: Criterion not met

Query string: Say whether RIYVLGGGTSWTAYSLNKIHAYNL [KLHDC10] shows protein stability index of 4 or more.
Result string: Criterion not met

Query string: Say whether GEGVDKLSLPARNQAGYFMLPTVI [ALDH8A1] shows protein stability index of 4 or more.
Result string: Criterion not met
